Ref: patent US20260356856A1

biological target: KRas-mediated phosphorylation of ERK in A549 cells (Homo sapiens, UniProt P01116, G12S); construct: pERK HTRF read-out; assay: Inhibition of KRas-mediated phosphorylation of ERK (HTRF), A549 cells; assay type: cell-based; conditions: HTRF pERK, 3 h incubation
Sequence (P01116 1-188 isoform P01116-2 G12S): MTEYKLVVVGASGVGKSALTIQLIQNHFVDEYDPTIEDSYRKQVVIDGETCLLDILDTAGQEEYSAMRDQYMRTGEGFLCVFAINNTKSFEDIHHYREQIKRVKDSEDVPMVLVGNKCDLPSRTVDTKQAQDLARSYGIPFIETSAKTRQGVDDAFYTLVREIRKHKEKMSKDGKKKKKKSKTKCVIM
Quantity Name: IC50 (nM)

Cc1ccn(C(=O)[C@H]2CCN(c3nc(OC[C@@]45CCCN4C[C@H](F)C5)nc4c(F)c(-c5ccc(F)c6sc(N)c(C#N)c56)c(Cl)cc34)C[C@H]2C)n1 = 250
Cc1ccn(C(=O)[C@H]2C[C@H]2CNc2nc(OC[C@@]34CCCN3C[C@H](F)C4)nc3c(F)c(-c4ccc(F)c5sc(N)c(C#N)c45)c(Cl)cc23)n1 = 179
